This listing pairs compounds with measured IC50.
- system-tested: human TRPM8 (Homo sapiens, UniProt Q7Z2W7)
- Sequence (Q7Z2W7 whole entry): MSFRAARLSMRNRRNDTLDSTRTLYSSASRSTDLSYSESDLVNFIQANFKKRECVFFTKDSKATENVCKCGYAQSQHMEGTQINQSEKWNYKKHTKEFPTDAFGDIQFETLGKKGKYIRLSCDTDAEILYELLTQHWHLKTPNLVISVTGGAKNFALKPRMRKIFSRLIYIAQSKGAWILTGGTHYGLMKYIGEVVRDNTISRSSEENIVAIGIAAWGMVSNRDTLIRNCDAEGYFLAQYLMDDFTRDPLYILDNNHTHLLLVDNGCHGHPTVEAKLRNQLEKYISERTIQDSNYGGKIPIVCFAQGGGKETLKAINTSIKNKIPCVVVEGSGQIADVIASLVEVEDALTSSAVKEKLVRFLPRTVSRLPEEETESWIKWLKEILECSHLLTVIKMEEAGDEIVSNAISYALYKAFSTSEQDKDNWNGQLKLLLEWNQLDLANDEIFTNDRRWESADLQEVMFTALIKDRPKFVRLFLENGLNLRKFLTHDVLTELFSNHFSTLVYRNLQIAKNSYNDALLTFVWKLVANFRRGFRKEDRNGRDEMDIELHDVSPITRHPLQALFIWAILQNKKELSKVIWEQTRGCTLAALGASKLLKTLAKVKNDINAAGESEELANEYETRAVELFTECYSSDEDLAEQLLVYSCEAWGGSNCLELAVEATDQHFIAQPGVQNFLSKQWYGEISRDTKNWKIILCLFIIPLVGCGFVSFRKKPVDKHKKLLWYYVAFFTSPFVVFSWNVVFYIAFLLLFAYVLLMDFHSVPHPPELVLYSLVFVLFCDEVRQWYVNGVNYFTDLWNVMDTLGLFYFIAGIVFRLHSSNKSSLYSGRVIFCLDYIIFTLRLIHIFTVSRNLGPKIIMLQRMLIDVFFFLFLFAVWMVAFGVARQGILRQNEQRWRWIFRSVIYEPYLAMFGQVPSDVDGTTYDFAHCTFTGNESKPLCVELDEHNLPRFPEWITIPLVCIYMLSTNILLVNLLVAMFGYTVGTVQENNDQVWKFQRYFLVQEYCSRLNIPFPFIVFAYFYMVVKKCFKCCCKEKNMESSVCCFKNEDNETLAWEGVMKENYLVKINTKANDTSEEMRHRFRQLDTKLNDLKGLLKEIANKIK
- assay-details: Menthol-induced Ca2+ influx in HEK293 cells stably expressing human TRPM8
- experimental-setup: 30 microM menthol-induced Ca2+ influx, read-out: IC50 against TRPM8

Examples with answers:
INSERT INTO measurements (mol_smiles, system_tested, result) VALUES
  ('O=C(CN1CC2(CCC(F)(F)CC2)OC1=O)c1ccc(-c2cnccc2CO)cc1', 'human TRPM8 (Homo sapiens, UniProt Q7Z2W7)', '< 500 nM'),
  ('Cc1cc(C(=O)CN2C(=O)NC3(CCC(F)(F)CC3)C2=O)sc1-c1cccc2cccnc12', 'human TRPM8 (Homo sapiens, UniProt Q7Z2W7)', '< 500 nM'),
  ('Cc1cncc(-n2c(C)cc(C(=O)CN3C(=O)NC4(CCCCC4)C3=O)c2C)n1', 'human TRPM8 (Homo sapiens, UniProt Q7Z2W7)', '< 100 nM');

Entry O=C(CN1C(=O)NC2(CCC(F)(F)CC2)C1=O)c1ccc(-n2ccc3ccccc32)cc1 , IC50 reported as < 100 nM

---

- system-tested: human TRPM8 (Homo sapiens)
- assay-details: Menthol-induced Ca2+ influx in HEK293 cells stably expressing human TRPM8
- experimental-setup: 30 microM menthol-induced Ca2+ influx, read-out: IC50 against TRPM8
This listing pairs molecules with measured IC50.

Examples with answers:
INSERT INTO assay_data (mol_smiles, system_tested, result) VALUES
  ('O=C(CN1C(=O)NC2(CCC(F)(F)CC2)C1=O)c1ccc(-c2ccccn2)cc1', 'human TRPM8 (Homo sapiens)', '< 100 nM'),
  ('O=C(CN1C(=O)NC2(CCC(F)(F)CC2)C1=O)c1ccc(-c2cccc3nccnc23)cc1', 'human TRPM8 (Homo sapiens)', '< 100 nM'),
  ('O=C(CN1C(=O)NC2(CCCCC2)C1=O)c1ccc(-c2cccnc2)cc1', 'human TRPM8 (Homo sapiens)', '< 100 nM'),
  ('COc1nc2cccnc2n1-c1ccc(C(=O)CN2C(=O)NC3(CCC(F)(F)CC3)C2=O)cc1', 'human TRPM8 (Homo sapiens)', '< 10 nM');

Entry O=C(CN1C(=O)NC2(CCC(F)(F)CC2)C1=O)c1ccc(-c2ccnc3[nH]ccc23)nc1 , IC50 reported as < 100 nM

Entry Cc1nc(C(=O)CN2C(=O)NC3(CCC(F)(F)CC3)C2=O)sc1-c1ccccc1C#N , IC50 reported as < 100 nM

Entry Cc1ncccc1-c1ccc(C(=O)CN2C(=O)NC3(CCCCC3)C2=O)cn1 , IC50 reported as < 100 nM

Entry O=C(CN1C(=O)NC2(CCC(F)(F)CC2)C1=O)c1ccc(-n2cnc3ccccc32)cc1 , IC50 reported as < 10 nM

---

- system-tested: human TRPM8 (Homo sapiens, UniProt Q7Z2W7)
- assay-details: Menthol-induced Ca2+ influx in HEK293 cells stably expressing human TRPM8
- experimental-setup: 30 microM menthol-induced Ca2+ influx, read-out: IC50 against TRPM8
endpoint-name: IC50

INSERT INTO assay_data (compound, result) VALUES
  ('Cc1cncc(-n2c(C)cc(C(=O)CN3C(=O)NC4(CC5CCC4C5)C3=O)c2C)c1 (stereo not shown) [Example 3-10]', '< 100 nM'),
  ('Cc1cc(C(=O)CN2C(=O)NC3(CCC(F)(F)CC3)C2=O)sc1-c1cccc(C#N)c1 [Example 14-10]', '< 100 nM'),
  ('O=C(CN1C(=O)NC2(CCC(F)(F)CC2)C1=O)c1ccc(N2C(=O)Cc3ccccc32)cc1 [Example 19-26]', '< 100 nM'),
  ('O=C(CN1C(=O)NC2(CCC(F)(F)CC2)C1=O)c1ccc(-c2cccc3c2C(O)CC3)cc1 (stereo not shown) [Example 6-50]', '< 500 nM'),
  ('Cc1ncccc1-c1ccc(C(=O)CN2C(=O)NC3(CCC(F)(F)CC3)C2=O)cn1 [Example 9-15]', '< 100 nM'),
  ('Cc1cc(C)nc(-n2c(C)cc(C(=O)CN3C(=O)NC4(CCC(F)(F)CC4)C3=O)c2C)c1 [Example 3-16]', '< 100 nM'),
  ('O=C(CN1CC2(CCC(F)(F)CC2)OC1=O)c1ccc(-n2cnc3ccccc32)cc1 [Example 22-4]', '< 100 nM'),
  ('O=C(CN1C(=O)NC2(CCC(F)(F)CC2)C1=O)c1ccc(-c2cnccc2CO)c(F)c1 [Example 8-2]', '< 100 nM');

Value (IC50, human TRPM8 (Homo sapiens, UniProt Q7Z2W7)) for record Cc1cccc(Oc2ccc(C(=O)CN3C(=O)NC4(CCCCC4)C3=O)cn2)c1 [Example 20-3] = < 500 nM

Value (IC50, human TRPM8 (Homo sapiens, UniProt Q7Z2W7)) for record O=C(CN1C(=O)NC2(CCC(F)(F)CC2)C1=O)c1ccc(-c2cccc3ccncc23)cc1 [Example 13-36] = < 10 nM

Value (IC50, human TRPM8 (Homo sapiens, UniProt Q7Z2W7)) for record Cc1ccncc1-c1ncc(C(=O)CN2C(=O)NC3(CCC(F)(F)CC3)C2=O)cc1Cl [Example 5-25] = < 100 nM

Value (IC50, human TRPM8 (Homo sapiens, UniProt Q7Z2W7)) for record O=C(CN1C(=O)NC2(CCCCC2)C1=O)c1ccc(Oc2ccccc2)nc1 [Example 5-24] = < 500 nM
